Origin of measurements: ChEMBL document CHEMBL4513146

# System: Escherichia coli
# STATED_CONDITIONS: Concentration 32 ug.mL-1;; ASSAY_TEST Inhibition of Bacterial Growth; detection method Absorption (OD600); MEDIA CAMHB; plate type 384well; NBS; CORNING #3640; time 18 hr
# Description: Antibacterial activity against Escherichia coli ATCC 25922 (CO-ADD:GN_001); MIC in CAMBH media using NBS plates, by OD(600)
Results with a measured potency or affinity are listed apart.

# SMILES_TEXT, TESTED_ON, Inhibition (%)
data = [
    ("Cc1ccc(NC(=O)Cn2c(=O)c3nnc(C(C)C)n3c3ccccc32)cc1", "Escherichia coli", 0.43),
    ("COc1cccc(-c2noc(Cn3nc4ccc(-c5ccc(C)c(C)c5)nn4c3=O)n2)c1OC", "Escherichia coli", -3.11),
    ("CCOc1ccc(-n2ccn3c(SCC(=O)Nc4cccc(CC)c4)nnc3c2=O)cc1", "Escherichia coli", -8.29),
    ("COC(=O)c1ccccc1NC(=O)CSc1nc2ccccc2n2c(C(C)C)nnc12", "Escherichia coli", -3.26),
]

* * *

The compounds listed here are annotated with their Inhibition.
# System: Staphylococcus aureus
# STATED_CONDITIONS: Concentration 32 ug.mL-1;; ASSAY_TEST Inhibition of Bacterial Growth; detection method Absorption (OD600); MEDIA CAMHB; plate type 384well; NBS; CORNING #3640; time 18 hr
# Description: Antibacterial activity against Staphylococcus aureus MRSA ATCC 43300 (CO-ADD:GP_020); MIC in CAMBH media, using NBS plates, by OD(600)
Results with a measured potency or affinity are listed apart.

# COMPOUND, Inhibition / %
records = [
    ("COc1cccc(-n2ccn3c(SCC(=O)c4ccc(C)cc4C)nnc3c2=O)c1", 12.17),
    ("COc1ccc(C)cc1NC(=O)Cn1nc2ccc(SCc3ccc(Cl)cc3)nn2c1=O", 8.35),
    ("Cc1cccc(Oc2nc3ccccc3n3c(=O)n(CC(=O)NCc4ccco4)nc23)c1C", 3.87),
    ("CCC(Sc1nnc2c(=O)n(-c3ccc(C)c(C)c3)ccn12)C(=O)Nc1ccccc1C (stereo not given)", 13.17),
    ("COc1ccc(NC(=O)Cn2nc3ccc(-c4ccc(Cl)cc4)nn3c2=O)cc1OC", -0.18),
    ("O=S(=O)(c1ccc2nncn2c1)N(Cc1cc(F)cc(F)c1)c1cc(F)cc(F)c1", -5.61),
    ("Cc1ccc(Sc2nccn3c(=O)n(CC(=O)Nc4c(C)cc(C)cc4C)nc23)c(C)c1", 17.35),
    ("O=c1n(Cc2ccc(Cl)cc2)nc2ccc(-c3ccccc3)nn12", 3.14),
    ("Cc1cc(C)cc(Nc2nc(C)cc3nn(CC(=O)Nc4ccc(C)c(F)c4)c(=O)n23)c1", 9.64),
    ("CCCCn1c(=O)c2sccc2n2c(SCc3cccc(C(F)(F)F)c3)nnc12", -1.51),
    ("CCc1nnc2c(SCC(=O)Nc3cccc(C(C)=O)c3)nc3ccccc3n12", 2.41),
    ("Cc1nnc2c(SCC(=O)N3CCN(c4ccccc4F)CC3)nc3ccccc3n12", 19.81),
    ("COC(=O)c1ccc(NC(=O)Cn2nc3c4cc(-c5ccc(F)cc5)nn4ccn3c2=O)cc1", -6.17),
    ("CC(C)CCn1c(=O)c2sccc2n2c(=O)n(Cc3ccccc3Cl)nc12", 8.43),
    ("O=C(CSc1nnc2c3cc(-c4ccccc4)nn3ccn12)Nc1cccc(Br)c1", 9.78),
    ("COc1ccc(NC(=O)c2ccc3nn(CC(=O)Nc4ccc(C(C)=O)cc4)c(=O)n3c2)cc1", 15.44),
    ("CCc1nnc2c(S(=O)(=O)N(Cc3cccc(F)c3)c3ccc(C)c(C)c3)cccn12", 17.57),
    ("COc1ccc(NC(=O)CSc2nc3ccccc3n3c(C(C)C)nnc23)cc1Cl", -3.22),
    ("CSc1cccc(NC(=O)Cn2c(=O)c3nnc(C)n3c3ccccc32)c1", -2.91),
    ("CCc1ccc(NC(=O)Cn2nc3cc(C)nc(Nc4ccc(F)c(C)c4)n3c2=O)cc1", 4.65),
]
